Endpoint summary: pKi, system: Prothrombin (Homo sapiens), multiple sources combined.
pKi: −log10 of the molar value.
QUANTITY KIND: pKi

> print(dat)
                                   compound  quantity.kind  modifier  assay.result
1  NCCCCC(NC(=O)C1C=CCn2c(=O)n(CC(c3ccccc3)c3ccccc3)c(=O)n21)C(=O)C(=O)NCCc1ccc(C(N)=O)cc1 (stereo not drawn)            pKi         =          9.52
2  NC1CCC(CNC(=O)[C@@H]2CCCN2C(=O)C(NS(=O)(=O)Cc2ccccc2)C(c2ccccc2)c2ccccc2)CC1 (stereo partly drawn)            pKi         =         11.60
3  CN(CC(=O)N[C@@H](CCCCN)B(O)O)C(=O)c1ccccc1Sc1ccccc1            pKi         =          8.80
4  COc1cc([C@@H]2Nc3ccc(C(=N)N)cc3[C@H]3c4ccccc4C[C@H]32)c(-c2ccccc2C(=O)O)cc1O (racemic)            pKi         =          7.46
5  Cc1c(F)c(Oc2cccc(CN)c2)nc(Oc2cccc(C(=N)N)c2)c1F            pKi         <          5.30
6  NCCCCCCNC(=O)N1CCN(C(=O)O[C@H]2CCC[C@@H](OC(=O)N3CCN(C(=O)NCCCCCCN)CC3)CCC2)CC1            pKi         <          3.00
7  Cc1cc(C(=O)Nc2ccc(-c3ccccc3S(N)(=O)=O)cc2)n(-c2cccc(C#N)c2)n1            pKi         <          4.68
8  Cc1cc(C(=O)N(C)c2ccc(-c3ccccc3S(N)(=O)=O)cc2)n(-c2cccc(C(=N)N)c2)n1.O=C(O)C(F)(F)F            pKi         <          5.70
